- System Tested: T1, thyroid stimulating hormone receptor (full length human TSHR) (human, UniProt P16473 22-764)
- T1 construct: Full length TSHR coated onto plastic tubes (TSHR coated tubes, as in WO2004/050708A2); also called TSH receptor
- Assay Remarks: competitor ^125I-K1-70 IgG, TSHR coated tubes; 1 µg/mL in assay buffer

{"Binder": "K1-18 IgG (antibody, V domains shown, Human IgG1 kappa purified from hetero-hybridoma supernatant; it is not part of the secreted protein; also called human monoclonal TSHR autoantibody K1-18 (stimulating)) VH: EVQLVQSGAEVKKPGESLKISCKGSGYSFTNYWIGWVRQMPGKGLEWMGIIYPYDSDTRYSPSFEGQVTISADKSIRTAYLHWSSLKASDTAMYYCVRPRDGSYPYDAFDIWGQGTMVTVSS VL: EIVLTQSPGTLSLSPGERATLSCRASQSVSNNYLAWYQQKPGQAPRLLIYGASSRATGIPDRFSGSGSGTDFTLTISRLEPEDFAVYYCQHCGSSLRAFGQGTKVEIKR", "Inhibition of binding (%)": 89.6}
{"Binder": "K1-70 Fab (Fab, V domains shown) VH: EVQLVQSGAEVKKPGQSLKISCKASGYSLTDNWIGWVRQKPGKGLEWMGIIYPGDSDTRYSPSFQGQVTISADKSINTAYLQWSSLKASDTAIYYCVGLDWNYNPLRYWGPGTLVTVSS VL: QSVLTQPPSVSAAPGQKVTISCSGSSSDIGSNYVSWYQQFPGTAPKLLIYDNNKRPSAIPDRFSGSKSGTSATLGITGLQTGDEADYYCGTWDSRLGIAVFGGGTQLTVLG", "Inhibition of binding (%)": 88.3}
{"Binder": "K1-70 IgG (antibody, V domains shown, Human IgG1 lambda purified from hetero-hybridoma supernatant) VH: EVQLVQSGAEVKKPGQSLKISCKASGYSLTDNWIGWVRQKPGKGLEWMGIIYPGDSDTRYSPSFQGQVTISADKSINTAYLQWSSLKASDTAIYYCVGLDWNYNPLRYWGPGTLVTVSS VL: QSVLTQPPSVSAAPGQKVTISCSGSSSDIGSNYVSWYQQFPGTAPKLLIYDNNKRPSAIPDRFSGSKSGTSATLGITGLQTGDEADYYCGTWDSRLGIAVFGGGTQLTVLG", "Inhibition of binding (%)": 90.8}
{"Binder": "K1-18 Fab (Fab, V domains shown) VH: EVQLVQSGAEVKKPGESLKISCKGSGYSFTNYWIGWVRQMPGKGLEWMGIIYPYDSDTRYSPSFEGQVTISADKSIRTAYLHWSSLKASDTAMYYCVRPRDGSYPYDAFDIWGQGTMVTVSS VL: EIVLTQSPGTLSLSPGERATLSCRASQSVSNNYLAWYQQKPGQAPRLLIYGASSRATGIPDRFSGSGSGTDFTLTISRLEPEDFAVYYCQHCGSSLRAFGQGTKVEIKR", "Inhibition of binding (%)": 78.5}
